Exercise: state measured Tm for each of the sequences provided.
test: melting temperature; fluorescence melt of hairpins on a sequencing array, two-state fit, raised by 9.35 °C to match UV melts; settings: sodium 0.088 M
Answer with the figure and its unit, nothing else.

For each of the items listed, what is its Tm?
1. GATCACAATCGTGATC ((((((....))))))
2. GGATGCGAAAGCATGTCC ((((((....)))..)))
3. GTGATTCCGAAAGGACAC (((..(((....))))))
4. GTCACGCGAAAGCGAGAC (((.(((....))).)))
5. GTTGCTGGAAACAGCAAC (((((((....)))))))

Response given:
56.4 °C
35.9 °C
31.1 °C
60.1 °C
65.8 °C

----------
Exercise: state measured folding enthalpy for each of the sequences provided.
experiment: folding enthalpy; higher = less favourable; fluorescence melt of hairpins on a sequencing array, two-state fit; details: sodium 0.088 M
Give bare numbers, in kJ/mol.

Here is how some sequences turned out for folding enthalpy.
[
  {
    "residue.string": "GTGTTCGGAAACGAGCAC (((.(((....))).)))",
    "observable": "folding enthalpy",
    "unit.abbreviation": "kJ/mol",
    "quantitative.readout": -169
  },
  {
    "residue.string": "GCACGAGGAAACTCGCGC ((.((((....)))).))",
    "observable": "folding enthalpy",
    "unit.abbreviation": "kJ/mol",
    "quantitative.readout": -182
  },
  {
    "residue.string": "GTGATCGGAAACGATCAC (((((((....)))))))",
    "observable": "folding enthalpy",
    "unit.abbreviation": "kJ/mol",
    "quantitative.readout": -177
  }
]

// moving on: another record for folding enthalpy
folding enthalpy in this record for GGCAACGAAAGTTCTGCC ((((((....)))..))) : -114

----------
experiment: folding enthalpy; higher = less favourable; fluorescence melt of hairpins on a sequencing array, two-state fit; settings: sodium 0.088 M
Classify as follows. Reported folding enthalpy greater than or equal to -30 kcal/mol: Criterion met. Reported folding enthalpy below: Criterion not met.

Example results:
[
  {
    "residue.string": "GATCGCTTACGCGATC ((((((....))))))",
    "group": "Criterion not met"
  },
  {
    "residue.string": "GCGGGCCCGAAAGGGCGC (((..(((....))))))",
    "group": "Criterion met"
  },
  {
    "residue.string": "GATCCCGTGCGGGATC ((((((....))))))",
    "group": "Criterion not met"
  },
  {
    "residue.string": "GCGCCTCGAAAGAGTCGC (((.(((....))).)))",
    "group": "Criterion not met"
  },
  {
    "residue.string": "GTCAATGGAAACATCGAC (((.(((....))).)))",
    "group": "Criterion not met"
  },
  {
    "residue.string": "GGGGATGGAAACATTCCC (((.(((....))).)))",
    "group": "Criterion not met"
  },
  {
    "residue.string": "GACCACCGAAAGGTGTC (((.(((....))))))",
    "group": "Criterion met"
  },
  {
    "residue.string": "GTTCCGCGAAAGCGAAC (((.(((....))))))",
    "group": "Criterion met"
  },
  {
    "residue.string": "GCGTCAGGACGC ((((....))))",
    "group": "Criterion met"
  },
  {
    "residue.string": "GGCGTCTCGAAAGAGGCC (((..(((....))))))",
    "group": "Criterion not met"
  }
]

Challenge: Tell me whether folding enthalpy is at least -30 kcal/mol here: GCGACCTTTCGC ((((....))))
Response given: Criterion met

Challenge: Tell me whether folding enthalpy is at least -30 kcal/mol here: GCGTCAGCACGC ((((....))))
Response given: Criterion met

Challenge: Tell me whether folding enthalpy is at least -30 kcal/mol here: GGCTGCGGAAACGCAACC ((.((((....)))).))
Response given: Criterion met

Challenge: Tell me whether folding enthalpy is at least -30 kcal/mol here: GATCCACGGTTGGATC ((((((....))))))
Response given: Criterion not met

----------
experiment: folding enthalpy; higher = less favourable; fluorescence melt of hairpins on a sequencing array, two-state fit; conditions: sodium 0.088 M
Class field: derived from folding enthalpy; ranges class 0: < -40 kcal/mol; class 1: ≥ -40 kcal/mol and < -30 kcal/mol; class 2: ≥ -30 kcal/mol

Example results:
[
  {
    "residue.string": "GCTGTGCGAAAGCAGCGC ((..(((....)))..))",
    "group": "class 2"
  },
  {
    "residue.string": "GCGGGGCGAAAGCACAGC ((.(.((....)).).))",
    "group": "class 1"
  },
  {
    "residue.string": "GATCGCACTTGCGATC ((((((....))))))",
    "group": "class 1"
  },
  {
    "residue.string": "GGGGTTGGAAACAGCCCC ((((.((....)).))))",
    "group": "class 0"
  },
  {
    "residue.string": "GCGAGCGAAAGCTCTCGC ((((((....)))..)))",
    "group": "class 2"
  },
  {
    "residue.string": "GATCCGCACACGGATC ((((((....))))))",
    "group": "class 0"
  },
  {
    "residue.string": "ACACGGAAACGTGT (((((....)))))",
    "group": "class 2"
  },
  {
    "residue.string": "GCCGTTGGAAACAGTGGC (((..((....))..)))",
    "group": "class 2"
  }
]

Challenge: // return the class label for GCTGTCGGAAACGATAGC (((.(((....))).)))
Response given: class 0

Challenge: // return the class label for GATCTCGGGAGAGATC ((((((....))))))
Response given: class 0

----------
Exercise: state measured folding enthalpy for each of the sequences provided.
assay: folding enthalpy; higher = less favourable; fluorescence melt of hairpins on a sequencing array, two-state fit; conditions: sodium 0.088 M
Answers are plain numbers, in kcal/mol.

Here is how some sequences turned out for folding enthalpy.
[
  {
    "residue.string": "GTACAGTCGAAAGACTAC (((..(((....))))))",
    "folding enthalpy, kcal/mol": -10.2
  },
  {
    "residue.string": "GATCTCTGTGAGATC ((((((...))))))",
    "folding enthalpy, kcal/mol": -42.6
  },
  {
    "residue.string": "GCTACGCGAAAGCGCCGC ((..(((....)))..))",
    "folding enthalpy, kcal/mol": -10.9
  }
]

For each of the items listed, what is its folding enthalpy?
1. GGAGCCGAAAGGCTTCC ((((((....))).)))
2. GGAGTTGGAAACAGTTCC (((..((....))..)))
3. GCAAGGGGAAACCCTCGC ((.((((....)))).))
4. GCTAATCGAAAGATAAGC (((.(((....))).)))

Response given:
1: -14.6; 2: -13.4; 3: -23.4; 4: -26.2

For each of the items listed, what is its folding enthalpy?
1. GGGTAACGAAAGTTCCC (((.(((....))))))
2. GCGCATTCGAAAGAACGC (((..(((....))))))
3. GCGACAACTCGC ((((....))))
4. GCTTACGAAAGTAAGAGC ((((((....)))..)))

Response given:
-24.4
-18.8
-21.2
-18.5

For each of the items listed, what is its folding enthalpy?
1. GGAAACCGAAAGGTTCC (((.(((....))))))
2. GGTTCGCGAAAGCGACC (((.(((....))))))
3. GGCTCCGGAAACGGGGCC (((.(((....))).)))
4. GATCCTCGTCAGGATC ((((((....))))))
5. GATCCTAGGAAGGATC ((((((....))))))

Response given:
-18.8
-14.9
-50.7
-25.1
-32.8

----------
test: melting temperature; fluorescence melt of hairpins on a sequencing array, two-state fit, raised by 9.35 °C to match UV melts; conditions: sodium 0.088 M
observable: Tm (°C)
Answers are plain numbers, in °C.

Here is how some sequences turned out for Tm.
[
  {
    "residue.string": "GGTTTTGGAAACAAGACC (((.(((....))).)))",
    "Tm, °C": 42.8
  },
  {
    "residue.string": "GATCCCGACCGGGATC ((((((....))))))",
    "Tm, °C": 66.5
  },
  {
    "residue.string": "GGAAGCGAAAGCTCTCC ((((((....))).)))",
    "Tm, °C": 43.5
  },
  {
    "residue.string": "GCAGTGCGAAAGCAGTGC (((.(((....))).)))",
    "Tm, °C": 66.4
  },
  {
    "residue.string": "GATCGTTTCCACGATC ((((((....))))))",
    "Tm, °C": 54
  }
]

// moving on: another record for Tm
Tm in this record for GAGGCTGGAAACAGCCCC (.(((((....))))).) : 46.1

All values here come from the array DNA melting data of Ke et al. (doi:10.1101/2024.01.08.574731).
